Test system: 317291-083-R-J1-PDC complex spheroids, viability;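 note: spheroids exposed to compounds for one week before readout; percent viability relative to DMSO vehicle wells taken as 100%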
assay_remarks: Anticancer human tumor 317291-083-R-J1-PDC patient-derived soft tissue sarcoma cell line growth inhibition [GQUAD]; active = viability on the fitted dose curve at most 10% of control; inactive = the rest
condition: second compound 0.1 µM; first compound 3.16 µM
Entry note: the call must match one of true (1) (active), false (0) (inactive)

Examples from the recorded data:
molecule | qualitative_label
CC(C)(O)C1CCC(Nc2ccc3ncc(-c4cccc(C(F)(F)F)c4)n3n2)CC1 (stereo unspecified) + Cc1[nH]c2ccc(F)cc2c1-c1nc2c3cccnc3c3ncccc3c2[nH]1 | true (1)
O=C(NO)c1cnc(N2CCN(S(=O)(=O)c3ccc4ccccc4c3)CC2)nc1 + CN(C)c1ccc(Nc2c3ccc(NC(=O)CCN4CCCC4)cc3nc3cc(NC(=O)CCN4CCCC4)ccc23)cc1 | true (1)
Nc1ccn(C2OC(CO)C(O)C2(F)F)c(=O)n1 (stereo unspecified) + CN(C)c1ccc(Nc2c3ccc(NC(=O)CCN4CCCC4)cc3nc3cc(NC(=O)CCN4CCCC4)ccc23)cc1 | false (0)

**Q:** I would be grateful if you could indicate the recorded call for CCCS(=O)(=O)Nc1ccc(F)c(C(=O)c2c[nH]c3ncc(-c4ccc(Cl)cc4)cc23)c1F + CN(C)c1ccc(Nc2c3ccc(NC(=O)CCN4CCCC4)cc3nc3cc(NC(=O)CCN4CCCC4)ccc23)cc1 .
**A:** false (0)

**Q:** Another molecule to check: CC1COCCN1c1cc(C2(O)CC3CCC(C2)O3)c2cnn(-c3ccn[nH]3)c2n1 (stereo unspecified) + CN(C)c1ccc(Nc2c3ccc(NC(=O)CCN4CCCC4)cc3nc3cc(NC(=O)CCN4CCCC4)ccc23)cc1
**A:** true (1)

**Q:** Another molecule: CC1COCCN1c1cc(C2(S(C)(=N)=O)CC2)nc(-c2ccnc3[nH]ccc23)n1 (stereo unspecified) + CN(C)c1ccc(Nc2c3ccc(NC(=O)CCN4CCCC4)cc3nc3cc(NC(=O)CCN4CCCC4)ccc23)cc1
**A:** false (0)

**Q:** Thanks! And CC1COCCN1c1cc(C2(S(C)(=N)=O)CC2)nc(-c2ccnc3[nH]ccc23)n1 (stereo unspecified) + Cc1cnc(CNC(=O)c2c(=O)c3ccc(N4CCCN(C)CC4)nc3n3c2sc2ccccc23)cn1 ?
**A:** false (0)

**Q:** Now consider C=CCn1c(=O)c2cnc(Nc3ccc(N4CCN(C)CC4)cc3)nc2n1-c1cccc(C(C)(C)O)n1 + Cc1[nH]c2ccc(F)cc2c1-c1nc2c3cccnc3c3ncccc3c2[nH]1 .
**A:** false (0)

**Q:** Follow-up item: CC1COCCN1c1cc(-c2ccnn2C)c2ccnc(-c3ccn[nH]3)c2n1 (stereo unspecified) + Cc1[nH]c2ccc(F)cc2c1-c1nc2c3cccnc3c3ncccc3c2[nH]1
**A:** false (0)

**Q:** // same read-out, input: C#Cc1c(F)ccc2cc(O)cc(-c3ncc4c(N5CC6CCC(C5)N6)nc(OCC56CCCN5CC(F)C6)nc4c3F)c12 (stereo unspecified) + Cc1[nH]c2ccc(F)cc2c1-c1nc2c3cccnc3c3ncccc3c2[nH]1
**A:** false (0)

**Q:** What about this molecule? CC(C)n1c(=O)n(C)c2cnc3cc(F)c(-c4ccc(OCCCN5CCCCC5)nc4)cc3c21 + Cc1cnc(CNC(=O)c2c(=O)c3ccc(N4CCCN(C)CC4)nc3n3c2sc2ccccc23)cn1
**A:** false (0)

**Q:** Note, next up: O=C(NO)c1cnc(N2CCN(S(=O)(=O)c3ccc4ccccc4c3)CC2)nc1 + Cc1[nH]c2ccc(F)cc2c1-c1nc2c3cccnc3c3ncccc3c2[nH]1
**A:** true (1)

**Q:** Try this molecule too: CC1COCCN1c1cc(C2(O)CC3CCC(C2)O3)c2cnn(-c3ccn[nH]3)c2n1 (stereo unspecified) + Cc1cnc(CNC(=O)c2c(=O)c3ccc(N4CCCN(C)CC4)nc3n3c2sc2ccccc23)cn1
**A:** false (0)

**Q:** Lookup Cc1cccc(N(C)C(=O)C2C(O)CCN2c2nc(C)cc(C(F)(F)F)c2C#N)c1 (stereo unspecified) + Cc1cnc(CNC(=O)c2c(=O)c3ccc(N4CCCN(C)CC4)nc3n3c2sc2ccccc23)cn1
**A:** false (0)

**Q:** Then C#Cc1c(F)ccc2cc(O)cc(-c3ncc4c(N5CC6CCC(C5)N6)nc(OCC56CCCN5CC(F)C6)nc4c3F)c12 (stereo unspecified) + Cc1cnc(CNC(=O)c2c(=O)c3ccc(N4CCCN(C)CC4)nc3n3c2sc2ccccc23)cn1 ?
**A:** false (0)

**Q:** Same again, this time with O=C(c1cc(Cc2n[nH]c(=O)c3ccccc23)ccc1F)N1CCN(C(=O)C2CC2)CC1 + Cc1cnc(CNC(=O)c2c(=O)c3ccc(N4CCCN(C)CC4)nc3n3c2sc2ccccc23)cn1
**A:** false (0)
